Just for reference, ChEMBL document CHEMBL1914287 is where these values come from.

target: Sigma non-opioid intracellular receptor 1 (Homo sapiens, UniProt Q99720); assay: Binding affinity to sigma 1 receptor
Sequence (Q99720 whole entry): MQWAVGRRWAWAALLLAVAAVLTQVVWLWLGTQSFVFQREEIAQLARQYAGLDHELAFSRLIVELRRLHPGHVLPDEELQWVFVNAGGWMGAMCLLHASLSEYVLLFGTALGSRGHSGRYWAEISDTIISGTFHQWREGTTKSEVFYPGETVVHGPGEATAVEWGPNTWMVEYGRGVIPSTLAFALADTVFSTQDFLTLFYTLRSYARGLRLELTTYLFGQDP
Experimental endpoint: pKi
Recall that pKi is obtained by taking minus log10 of the concentration measured in molar.

# query: pKi of entry N#Cc1ccc(OCC2CCN(CCCF)CC2)cc1
8.37

* * *

assay: Binding affinity to sigma 2 receptor in guinea pig brain membrane; type: cell membranes, Cavia porcellus
Experimental endpoint: pKi
Recall that pKi is obtained by taking minus log10 of the concentration measured in molar.

# query: pKi of entry O=C(NC1CCN(Cc2ccccc2)CC1)c1ccccc1F
6.39

* * *

target: Sigma non-opioid intracellular receptor 1 (Cavia porcellus, UniProt Q60492); experiment: Binding affinity to sigma 1 receptor in guinea pig brain membrane
Sequence (Q60492 whole entry): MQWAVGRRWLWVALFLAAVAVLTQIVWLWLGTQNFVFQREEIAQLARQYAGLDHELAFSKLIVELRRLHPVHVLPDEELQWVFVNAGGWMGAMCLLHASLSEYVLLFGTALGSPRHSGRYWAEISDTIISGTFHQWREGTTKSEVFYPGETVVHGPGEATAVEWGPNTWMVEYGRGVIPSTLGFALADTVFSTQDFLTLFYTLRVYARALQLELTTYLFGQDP
Experimental endpoint: Ki
Please format your answer as a value with the unit trailing.

# query: Ki of entry O=C(NC1CCN(Cc2ccccc2)CC1)c1ccccc1F
3.39 nM
